System: S. aureus (MRSA)
ASSAY_DETAILS: MIC, clinical and laboratory strains
Assay type: cell-based
DETAILS: S. aureus (MRSA) 6311
EXPERIMENTAL_READOUT: MIC (µg/mL)
Express it in µg/mL; write the number only.

Query (compound): C/C(=C\C(=O)OCCCCCCCCC(=O)O)C[C@@H]1OC[C@H](C[C@@H]2O[C@H]2[C@@H](C)[C@H](C)O)[C@@H](O)[C@H]1O ; field requested: MIC 1

Query (compound): CC(C)c1cc(Cl)ccc1-c1cc(-c2nnn[nH]2)c(-c2ccc(Cl)cc2C(C)C)s1 ; field requested: MIC 1

Query (compound): CN[C@H](CC(C)C)C(=O)N[C@H]1C(=O)N[C@@H](CC(N)=O)C(=O)N[C@H]2C(=O)N[C@H]3C(=O)N[C@H](C(=O)N[C@H](C(=O)O)c4cc(O)cc(O)c4-c4cc3ccc4O)[C@H](O)c3ccc(c(Cl)c3)Oc3cc2cc(c3O[C@@H]2O[C@H](CO)[C@@H](O)[C@H](O)[C@H]2O[C@H]2C[C@](C)(N)[C@H](O)[C@H](C)O2)Oc2ccc(cc2Cl)[C@H]1O ; field requested: MIC 1

---

Tested on: S. aureus (MSSA)
ASSAY_DETAILS: MIC, clinical and laboratory strains
Assay type: cell-based
DETAILS: S. aureus (MSSA) 6502
EXPERIMENTAL_READOUT: MIC
Respond with the figure and its unit, in that order.

Query (molecule): C/C(=C\C(=O)OCCCCCCCCC(=O)O)C[C@@H]1OC[C@H](C[C@@H]2O[C@H]2[C@@H](C)[C@H](C)O)[C@@H](O)[C@H]1O ; field requested: MIC 1 µg/mL

Query (molecule): CC(C)c1cc(Cl)ccc1-c1cc(-c2nnn[nH]2)c(-c2ccc(Cl)cc2C(C)C)s1 ; field requested: MIC 1 µg/mL

Query (molecule): CC[C@H]1OC(=O)[C@H](C)[C@@H](O[C@H]2C[C@@](C)(OC)[C@@H](O)[C@H](C)O2)[C@H](C)[C@@H](O[C@@H]2O[C@H](C)C[C@H](N(C)C)[C@H]2O)[C@](C)(O)C[C@@H](C)C(=O)[C@H](C)[C@@H](O)[C@]1(C)O ; field requested: MIC 0.25 µg/mL

Query (molecule): CN[C@H](CC(C)C)C(=O)N[C@H]1C(=O)N[C@@H](CC(N)=O)C(=O)N[C@H]2C(=O)N[C@H]3C(=O)N[C@H](C(=O)N[C@H](C(=O)O)c4cc(O)cc(O)c4-c4cc3ccc4O)[C@H](O)c3ccc(c(Cl)c3)Oc3cc2cc(c3O[C@@H]2O[C@H](CO)[C@@H](O)[C@H](O)[C@H]2O[C@H]2C[C@](C)(N)[C@H](O)[C@H](C)O2)Oc2ccc(cc2Cl)[C@H]1O ; field requested: MIC 0.5 µg/mL

---

System: S. aureus (VISA)
ASSAY_DETAILS: MIC, clinical and laboratory strains
Type: cell-based
DETAILS: S. aureus (VISA) 2012
For each of the compounds below, state its MIC.
Express it in µg/mL; write the number only.

Tell me reported MIC for CN[C@H](CC(C)C)C(=O)N[C@H]1C(=O)N[C@@H](CC(N)=O)C(=O)N[C@H]2C(=O)N[C@H]3C(=O)N[C@H](C(=O)N[C@H](C(=O)O)c4cc(O)cc(O)c4-c4cc3ccc4O)[C@H](O)c3ccc(c(Cl)c3)Oc3cc2cc(c3O[C@@H]2O[C@H](CO)[C@@H](O)[C@H](O)[C@H]2O[C@H]2C[C@](C)(N)[C@H](O)[C@H](C)O2)Oc2ccc(cc2Cl)[C@H]1O , tested with S. aureus (VISA). 8

Tell me reported MIC for CC(C)c1cc(Cl)ccc1-c1cc(-c2nnn[nH]2)c(-c2ccc(Cl)cc2C(C)C)s1 , tested with S. aureus (VISA). 2

Tell me reported MIC for C/C(=C\C(=O)OCCCCCCCCC(=O)O)C[C@@H]1OC[C@H](C[C@@H]2O[C@H]2[C@@H](C)[C@H](C)O)[C@@H](O)[C@H]1O , tested with S. aureus (VISA). 1

Where do the numbers come from? From paper PMC11436758.
